biological target: glutamate-activated channels of the GRIN1/2A subtype stably transfected in HEK 293 cells (Homo sapiens (Human), UniProt Q05586+Q12879); test: Automated patch-clamp system (QPatch HTX), percent potentiation at 1 μM; type: cell-based; details: HEK293, 1 μM test compound, 300 μM NMDA with 8 μM glycine, HEK 293 GRIN1/2A, read-out: GluN2A PCA % potentiation at 1 μM
Sequence (Q12879 whole entry, looked up, other chains not shown): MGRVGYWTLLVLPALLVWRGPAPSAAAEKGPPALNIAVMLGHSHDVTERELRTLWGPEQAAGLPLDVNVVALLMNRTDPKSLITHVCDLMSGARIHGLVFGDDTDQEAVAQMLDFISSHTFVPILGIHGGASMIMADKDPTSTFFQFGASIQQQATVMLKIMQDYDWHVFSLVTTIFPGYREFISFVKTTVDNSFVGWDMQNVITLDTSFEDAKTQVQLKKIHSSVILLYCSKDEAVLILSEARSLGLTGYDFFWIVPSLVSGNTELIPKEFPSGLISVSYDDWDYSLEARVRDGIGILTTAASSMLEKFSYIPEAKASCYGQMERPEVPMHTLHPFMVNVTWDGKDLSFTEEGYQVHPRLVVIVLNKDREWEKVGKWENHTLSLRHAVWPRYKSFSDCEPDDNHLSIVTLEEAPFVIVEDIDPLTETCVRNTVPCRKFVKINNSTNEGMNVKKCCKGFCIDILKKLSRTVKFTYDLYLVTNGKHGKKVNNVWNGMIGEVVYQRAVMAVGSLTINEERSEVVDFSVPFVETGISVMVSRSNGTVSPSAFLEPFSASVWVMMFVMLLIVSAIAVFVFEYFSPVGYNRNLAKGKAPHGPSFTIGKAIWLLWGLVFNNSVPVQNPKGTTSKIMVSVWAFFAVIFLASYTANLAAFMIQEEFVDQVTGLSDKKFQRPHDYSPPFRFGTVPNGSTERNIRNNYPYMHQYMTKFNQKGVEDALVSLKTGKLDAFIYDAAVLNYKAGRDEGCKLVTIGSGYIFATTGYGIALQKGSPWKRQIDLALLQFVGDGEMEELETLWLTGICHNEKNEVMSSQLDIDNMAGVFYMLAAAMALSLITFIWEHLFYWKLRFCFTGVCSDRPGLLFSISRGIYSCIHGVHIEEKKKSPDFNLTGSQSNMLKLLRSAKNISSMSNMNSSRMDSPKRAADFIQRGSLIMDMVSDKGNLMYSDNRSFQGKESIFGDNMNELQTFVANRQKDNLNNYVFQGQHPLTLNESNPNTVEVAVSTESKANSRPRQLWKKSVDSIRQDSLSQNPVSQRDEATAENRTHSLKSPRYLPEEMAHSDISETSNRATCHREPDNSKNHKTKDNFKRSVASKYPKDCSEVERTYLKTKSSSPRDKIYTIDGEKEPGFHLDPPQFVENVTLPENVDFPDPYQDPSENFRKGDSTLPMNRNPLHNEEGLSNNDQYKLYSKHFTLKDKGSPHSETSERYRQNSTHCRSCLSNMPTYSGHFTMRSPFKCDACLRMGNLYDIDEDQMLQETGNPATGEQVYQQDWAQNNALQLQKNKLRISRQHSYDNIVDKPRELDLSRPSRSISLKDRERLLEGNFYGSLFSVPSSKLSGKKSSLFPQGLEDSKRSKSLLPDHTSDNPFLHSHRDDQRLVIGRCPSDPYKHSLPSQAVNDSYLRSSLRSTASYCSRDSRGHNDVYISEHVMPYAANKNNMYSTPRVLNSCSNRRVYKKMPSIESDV

compound_smiles	activation at 1 µM
C[C@@H]([C@H]1CC[C@H]2[C@@H]3CC[C@@H]4C[C@@](C)(O)CC[C@]4(C)[C@H]3CC[C@]12C)[C@H](O)C(F)(F)F	-40 to -10%
CC[C@]1(O)CC[C@@]2(C)[C@H](CC[C@@H]3[C@@H]2CC[C@]2(C)[C@@H]([C@H](C)[C@H](O)CCC(C)(C)C)CC[C@@H]32)C1	-40 to -10%
CC[C@]1(O)CC[C@H]2[C@@H](CC[C@@H]3[C@@H]2CC[C@]2(C)[C@@H]([C@H](C)[C@H](O)CCC(C)C)CC[C@@H]32)C1	-10 to 10%
CC[C@]1(O)CC[C@@]2(C)C(=CC[C@H]3[C@@H]4CC[C@H]([C@H](C)[C@H](O)CCC5CC5)[C@@]4(C)CC[C@@H]32)C1	-10 to 10%
CC[C@]1(O)CC[C@@]2(C)[C@@H](CC[C@@H]3[C@@H]2CC[C@]2(C)[C@@H]([C@H](C)[C@@H](O)C4CCOCC4)CC[C@@H]32)C1	-40 to -10%

Cited source: patent US11613556B2
